Measured Rabbit placenta inhibition % @100 nM, listed per entry for reference.
- Tested on: HSD1 enzyme that is expressed in rabbit placenta tissue
- ASSAY PROCEDURE: Inhibition of E1 to E2 conversion in rabbit placenta tissue homogenate
- Type: biochemical
- ASSAY CONTEXT: inhibitor 100 nM, 30 nM estrone, 30 min
Provide only the numeric value, understood in %.

Lookup: # return Rabbit placenta inhibition % @100 nM of CC(C)c1ccc(NC(=O)CC[C@@H]2C/C(=N\O)[C@@]3(C)CCC4c5ccc(F)cc5CCC4C23)nc1 (stereo partly shown) (system: HSD1 enzyme that is expressed in rabbit placenta tissue)
Found: 41

Lookup: With HSD1 enzyme that is expressed in rabbit placenta tissue as the test system, provide measured Rabbit placenta inhibition % @100 nM for this compound: C[C@]12CCC3c4cccc(F)c4CCC3C1[C@H](CCC(=O)N1CCCC1)C/C2=N\O (stereo partly shown)
Found: 14

Lookup: Specify the recorded Rabbit placenta inhibition % @100 nM for COc1ccc(NC(=O)CC[C@@H]2C/C(=N\O)[C@@]3(C)CCC4c5ccccc5CCC4C23)nc1 (stereo partly shown) , system: HSD1 enzyme that is expressed in rabbit placenta tissue.
Found: 35

Lookup: State measured Rabbit placenta inhibition % @100 nM of the compound C[C@]12CCC3c4ccccc4CCC3C1[C@H](CCC(=O)Nc1cc3c([nH]c1=O)CCCC3)C/C2=N\O (stereo partly shown) with HSD1 enzyme that is expressed in rabbit placenta tissue.
Found: 8

Lookup: // fetch Rabbit placenta inhibition % @100 nM for C[C@]12CCC3c4ccc(Cl)cc4CCC3C1[C@H](CCC(=O)N1CCC3(CCOCC3)C1)C/C2=N\O (stereo partly shown) ; system: HSD1 enzyme that is expressed in rabbit placenta tissue
Found: 1

* * *

- SYSTEM: recombinant human 17β-HSD2 (Homo sapiens)
- Construct: made in house; host or cells: Sd9 (Sf9) insect cells, baculovirus (Bac to Bac Expression System)
- Sequence (P37059 whole entry): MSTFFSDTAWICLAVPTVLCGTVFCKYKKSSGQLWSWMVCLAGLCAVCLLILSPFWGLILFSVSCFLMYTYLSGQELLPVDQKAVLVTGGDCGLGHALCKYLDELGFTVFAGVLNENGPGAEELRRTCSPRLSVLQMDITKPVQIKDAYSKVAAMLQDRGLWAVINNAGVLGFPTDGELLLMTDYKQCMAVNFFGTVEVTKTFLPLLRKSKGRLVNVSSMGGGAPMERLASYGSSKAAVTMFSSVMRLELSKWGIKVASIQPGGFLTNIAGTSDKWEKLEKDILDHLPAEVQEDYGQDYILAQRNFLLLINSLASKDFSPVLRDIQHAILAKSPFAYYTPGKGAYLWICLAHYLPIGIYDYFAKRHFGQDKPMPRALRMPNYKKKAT
- ASSAY PROCEDURE: Inhibition of recombinant human 17β-HSD2
- Assay type: biochemical
- ASSAY CONTEXT: inhibitor 1 μM; 50 nM estradiol, 1 mM NADH, 30 min RT
ENDPOINT: inhibition at 1 µM (%)
Numbers only here, please. The scale is %.

C[C@]12CCC3c4ccc(Cl)cc4CCC3C1[C@H](CCC(=O)Nc1cc(F)ccn1)C/C2=N\O (stereo partly shown) [Compound 156] : 10
CN(C)C(=O)c1ccc(NC(=O)CC[C@@H]2C/C(=N\O)[C@@]3(C)CCC4c5ccccc5CCC4C23)nc1 (stereo partly shown) [Compound 92] : 9
C[C@]12CCC3c4ccc(F)cc4CCC3C1[C@H](CCC(=O)Nc1ccc(F)cn1)C/C2=N\O (stereo partly shown) [Compound 26] : 8

Lookup: Please report inhibition at 1 µM for the following molecule: C[C@]12CCC3c4ccc(F)cc4CCC3C1[C@H](CCC(=O)Nc1ccc(N3CCOCC3)cn1)C/C2=N\O (stereo partly shown) [Compound 154]
Found: 7

Lookup: Using known records, supply inhibition at 1 µM for C[C@]12CCC3c4cccc(F)c4CCC3C1[C@H](CCC(=O)N1CCCC1)C/C2=N\O (stereo partly shown) [Compound 14]
Found: 4

Lookup: Return inhibition at 1 µM (reported value) for this molecule: C[C@]12CCC3c4cccc(F)c4CCC3C1[C@H](CCC(=O)Nc1nncs1)C/C2=N\O (stereo partly shown) [Compound 18]
Found: 14

Lookup: Return inhibition at 1 µM (reported value) for this molecule: COc1ccc(NC(=O)CC[C@@H]2C/C(=N\O)[C@@]3(C)CCC4c5cccc(F)c5CCC4C23)nc1 (stereo partly shown) [Compound 6]
Found: 1
